Source: PubChem BioAssay

Assay: growth suppression of PTEN-deleted HCT116, pilot screen, cell-based, HCT116 clonal line, CellTiter-Glo (AID 824);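 further: 0% = 20 µM Hyamine control and 100% = vehicle cell control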
Conditions: 60 h, at 10 µM, hits give low values
Results filed as inconclusive are left out.
# 1 = viability below 90% (exclusive); 0 = viability at/above 90%

compound	class-assignment
COc1ccc(-c2nnc3ccc(SCC(=O)N4CCCC4)nn23)cc1	0
O=C(Nc1nc(-c2cccs2)cs1)c1ccc(S(=O)(=O)N2CCCCC2)cc1	1
CCOC(=O)Cn1c(C)nc2ccccc21	0
O=C(CSc1ccccc1)NCc1cccnc1	0
Cc1ccc(-c2nn3c(C)nnc3s2)cc1NC(=O)C(C)C	0
CCOc1ccc(C2CC(=O)NC(SCC(=O)OC)=C2C#N)cc1 (centres undefined)	0
Cc1nccn1-c1ncnc2sc3c(c12)CCCC3	0
Cn1c(=O)c2c(nc(N3CCN(Cc4ccccc4)CC3)n2CCSc2ncccn2)n(C)c1=O	0
CC1=C(C(=O)OCc2ccccc2)C(c2ccco2)C2=C(CC(C)(C)CC2=O)N1 (centres undefined)	1
CN1CCN(C(=O)C2CCCCC2C(=O)O)CC1 (centres undefined)	0
COc1ccccc1C(=O)N(Cc1nc(-c2ccc(Cl)cc2)no1)C(C)C	1
COc1ccc(C2C(C(=O)Nc3cc(C)on3)c3ccccc3C(=O)N2C)cc1 (centres undefined)	0
COc1ccc(C2(O)CCN(C(=O)Cc3cccnc3)CC2)cc1	0
CC(=O)NC1(c2ccccc2)CCN(Cc2nnnn2C(C)(C)C)CC1	0
Cc1ccc(S(=O)(=O)c2nc(S(C)(=O)=O)sc2N(C)C)cc1	1
C=C(Br)Cn1c(CC(C)C)nc2ccccc21	1
CCCC(=O)Nc1ccc(N2CCCCC2)cc1	0
Cc1ccc2cc(-c3noc(C4CCCCC4)n3)c(=O)[nH]c2c1	0
CCN(CC)CCN=C1CCCc2ccccc2N1	1
O=S(=O)(NCc1ccc2c(c1)OCO2)c1cnc[nH]1	0

---

Assay: growth suppression of PTEN-deleted HCT116, pilot screen, cell-based, HCT116 clonal line, CellTiter-Glo (AID 824);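 further: 0% = 20 µM Hyamine control and 100% = vehicle cell control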
Settings: 60 h, at 10 µM, hits give low values
Inconclusive results are not listed.
property-label: viability (%)

molecule	test-value
c1ccc(Cn2ncc3ccccc32)cc1	98
C#CCn1c(=NC(=O)CN2C(=O)CCC2=O)sc2cccc(C)c21	88.8
O=C(O)CCCC(=O)N1CCN(c2nc(-c3ccccc3)c3ccccc3n2)CC1	93
COc1ccc(N2CCN(C(=O)c3sc4nc(-c5ccc(F)cc5)cn4c3C)CC2)cc1	95.6
O=C(Nc1ccc(S(=O)(=O)N2CCCCCC2)cc1)c1ccc(Br)o1	59.7
COc1ccccc1N1CCN(C(=O)COc2ccc(C)cc2Br)CC1	72.4
Cc1c(NC(=O)CCCCCN2C(=O)C3C4C=CC(C4)C3C2=O)c(=O)n(-c2ccccc2)n1C (stereo not drawn)	100
Cc1ccc(-c2nnc(SCC(=O)Nc3ccccc3F)o2)cc1	37.8
Cc1ccc(S(=O)(=O)N2C3C=CC(C3)C2C(=O)O)cc1 (stereo not drawn)	99.9
Cc1cccc(NC(=O)Cn2cnc3sc(C)c(S(=O)(=O)N4CCC(C)CC4)c3c2=O)n1	99.1
O=C(CN(C1CCCCC1)S(=O)(=O)c1ccc(F)cc1)NCCCO	98.1
CC1=CC(c2ccccc2)n2nc(NS(=O)(=O)c3ccc(C)cc3)nc2N1 (stereo not drawn)	99.5
CCC(Sc1nc(C)cc(=O)[nH]1)C(=O)Nc1sc2c(c1C#N)CCCC2 (stereo not drawn)	91.4
COc1cccc(NS(=O)(=O)c2nc3nc(C)cc(C)n3n2)c1	98.9
COc1ccc(C)c(S(=O)(=O)Nc2ccc(OCC(=O)O)cc2)c1	102
CCOCCCNC(=O)C(c1ccc(Cl)cc1)N1CCN(C(=O)c2ccco2)CC1 (stereo not drawn)	96.2
CNC(=O)c1c(N)sc2c1CCCCC2	88.1
c1ccc(COc2nsnc2N2CCOCC2)cc1	86.5
COC(=O)C1=C(C)OC(N)=C(C#N)C1c1ccccc1F (stereo not drawn)	98.1
CCOC(=O)c1c(NC(=O)c2ccco2)sc2c1CCCC2	101
O=C(O)C1C2C=CC(C2)C1C(=O)OCC1CCCO1 (stereo not drawn)	94.8
CCOC(=O)c1c(C)nc(-c2ccccc2)nc1NC(C)=O	89.5
COc1ccc(NC(=O)Nc2cccc3cccnc23)cc1	78

---

# growth inhibition per record follows
Assay: Restrictive medium S. cerevisiae growth inhibition, OD615, pilot screen of yeast lifespan reduction project, restrictive growth control (AID 706);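 further: modified DeaD lifespan yeast strain shifted to restrictive glucose medium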
Details: OD615, 48 h, at 10 µM, hits give high values

compound	growth inhibition [%]
CCN1C(=O)c2ccccc2S(=O)c2ccc(C(=O)N3CCN(C(=O)c4ccco4)CC3)cc21 (stereo not given)	7.19
NC(=O)c1ccc(N2CCCCC2)c(N2C(=O)CCC2=O)c1	-17.9
CCSCCOC(=O)C1=C(C)N(C)C(=O)NC1c1cc(OC)ccc1OC (stereo not given)	-2.77
COc1cccc(N(CC(=O)Nc2cccc(C(C)=O)c2)S(C)(=O)=O)c1	-2.52
COc1ccc2nc(SCc3nc(N)nc(Nc4ccccc4)n3)[nH]c2c1	15.4

---

Overview of reported growth inhibition across a group of compounds:
Assay: OD615 S. cerevisiae growth inhibition, permissive medium, pilot counter-assay, permissive growth control for S. cerevisiae lifespan shortening project (AID 705)
Conditions: OD615, 24 h, at 10 µM, hits give high values

compound	growth inhibition / %
COc1ccc(CCNC(=O)CN(c2ccccc2OC)S(C)(=O)=O)cc1OC	-2.94
COc1ccc(N=C(C)C2=C(O)COC2=O)cc1	-1.31
C=CCn1c(-c2ccc(N)cc2)nc2ccccc21	-6.82
CC(C)Cc1cc(C(=O)Nc2ccc(F)cc2F)no1	-18.9
CC(=O)c1c(N(C)C)ccnc1C(F)(F)F	-3.09
O=C(c1cc2c(ccc3ccccc32)oc1=O)N1CCN(CCO)CC1	-9.81
O=C(Nc1cccc(OC(F)(F)F)c1)c1ccc(Br)o1	-1.13
Cn1nnnc1SCc1ccc(F)cc1	-3.69
Cc1ccc(S(=O)(=O)N2CCCC(C(=O)N(Cc3cccs3)C3CC3)C2)cc1 (configuration not stated)	-7.06
CCCn1c(CNc2ccc(Br)cc2)nc2ccccc21	-11.7
Cc1ccc(C2CC(c3ccccc3Cl)n3nc(N)nc3N2)cc1 (configuration not stated)	0.815
COc1ccc(CCNC(=O)c2c(-c3ccccc3)noc2C)cc1OC	3.07
COc1cccc(OC)c1C(=O)Nc1nnc(C(C)C)s1	-6.36
COc1cc(C2C(C(N)=O)=C(C)Nc3nc(CCCO)nn32)cc(OC)c1OC (configuration not stated)	-3.16
CCCN(CCC)C(=O)c1ccc2c(c1)N(Cc1ccccc1)C(=O)CS2=O (configuration not stated)	2.79
Cc1ccccc1-n1c(C)nc2ccccc21	-17.5
Cn1c(=O)c2c(SCC(=O)N3CCN(c4ccccc4)CC3)nc(C3CC3)nc2n(C)c1=O	10.6
COc1ccc(OC)c(CCNC(=O)CN2C(=O)CC(C)(C)S(=O)(=O)c3ccccc32)c1	-4.35
CCC(Sc1nccn1C)C(=O)Nc1nnc(C)s1 (configuration not stated)	-21.2
COCCCNC(=O)CN1C(=O)CSc2ncccc21	-3.21
CCCCn1c(CNC(=O)CC)nc2ccccc21	-4.54
CCOC(=O)N1CCN(C(=O)Cn2c(=O)sc3ccccc32)CC1	-1.79
COc1ccc(NC(=O)c2cnc3ccccn3c2=O)cc1OC	-5.08
CC(=O)Nc1ccc(NC(=O)C2CC(=O)N(c3cccc(C)c3C)C2)cc1 (configuration not stated)	-21.2
O=S(=O)(NCc1cccnc1)c1ccc(Cl)c(Cl)c1	-0.945
CCN(CC)c1ccc(NC(=O)CN2C(=O)CSc3ncccc32)c(C)c1	1.52
COc1ccc(C2CC(c3ccccc3C)n3nc(N)nc3N2)cc1 (configuration not stated)	1.94
CC(=O)c1cccc(NC(=O)Cn2cc3c(n2)CCCC3)c1	-3.74
COc1cc(CC(=O)O)c(C(C)=O)cc1OC	0.26
Cc1cccc(OCc2nnc(SCC(=O)NCCc3ccccc3)o2)c1	-3.83
O=C(NCCN1CCN(C(=O)Nc2ccccc2)CC1)Nc1ccccc1	-18.1
Cc1cc(C(=O)NCc2ccco2)cs1	-6.77
COc1cccc(C(=O)Nc2ccc3nc(N4CCN(c5ncccn5)CC4)cc(C)c3c2)c1OC	12
O=S(=O)(NCCN1CCCC1)c1cccc2cccnc12	-4.34
CC1CCN(c2nc(-c3ccncc3)nc3ccccc23)CC1	6.84
CN(C)Cc1cc(C(C)(C)C)c(O)c(C(C)(C)C)c1	-3.78
CC(=O)NCCn1c(C)cc2ccccc21	2.67
CCOc1ccccc1NC(=O)CSc1nnc(Cn2c(=O)sc3ccccc32)n1C	-8.96
CCCCOc1ccccc1C1C(C(=O)OC)=CN(CC)C=C1C(=O)OC	-6.49
CC(Oc1ccc(Cl)cc1Cl)C(=O)NCCCN(C)C (configuration not stated)	-0.77
O=C(Nc1nccs1)c1ccc(S(=O)(=O)N2CCCCC2)cc1	-9.01
CCn1c2ccccc2c2nnc(SCN3C(=O)c4ccccc4C3=O)nc21	-12.1
COc1ccc(OC)c(NC(=O)c2c(NC(=O)CNCc3ccco3)sc3c2CCC3)c1	-0.125
CCOC(=O)N1CCN(C(c2ccc(C)cc2)c2sc3nc(C)nn3c2O)CC1 (configuration not stated)	2.26
Cc1ccc(-c2nc(CS(=O)CC(=O)NC3CCCC3)c(C)o2)cc1 (configuration not stated)	5.52
CCCC(=O)NCCCc1nc2ccccc2[nH]1	-8.81
CCC(C)Sc1nnc(Cc2cc(=O)[nH]c(=O)[nH]2)n1-c1ccc(OC)cc1 (configuration not stated)	5.64
